Source of measurements: patent US10322161B2

# assayInfo: in vitro
# runParameters: mouse, plasma, Half-life (t1/2) Plasma
Reported half-life at 200 μM values are given for each entry in this list.

- smilesRepr: "CC(C)[C@@H]1NC(=O)[C@@H](NC(=O)[C@H](Cc2ccc(O)cc2)NC(=O)[C@@H]2CCCN2C(=O)[C@H](C)N)CSSC[C@@H](C(N)=O)NC(=O)[C@H](CO)NC(=O)[C@H](Cc2c[nH]c3ccccc23)NC(=O)[C@H](CO)NC(=O)CCNC(=O)[C@H](CCCNC(=N)N)NC(=O)[C@H](Cc2ccc(O)cc2)NC1=O"
  half-life at 200 μM: "~2 h"
- smilesRepr: "CC(C)[C@@H]1NC(=O)[C@@H](NC(=O)[C@H](Cc2ccc(O)cc2)NC(=O)[C@@H]2CCCN2C(=O)[C@@H](C)N)CSSC[C@@H](C(N)=O)NC(=O)[C@H](CO)NC(=O)[C@H](Cc2c[nH]c3ccccc23)NC(=O)[C@H](CO)NC(=O)CCNC(=O)[C@H](CCCNC(=N)N)NC(=O)[C@H](Cc2ccc(O)cc2)NC1=O"
  half-life at 200 μM: "~72 h"
